// data source = the NIST ThermoML archive (doi:10.1016/j.fluid.2017.03.021)

For each record, write down the corresponding molar heat capacity at constant pressure.
assay: molar heat capacity at constant pressure; details: 312.15 K; 101.33 kPa; Liquid; DSC
± gives the expanded uncertainty stated by the source.

Known results for compounds:
CCCCn1cc[n+](CCC(C)C)c1.O=S(=O)([N-]S(=O)(=O)C(F)(F)F)C(F)(F)F = 695.9 ± 27 J/K/mol
CCCC[n+]1ccn(C2CCCC2)c1.O=S(=O)([N-]S(=O)(=O)C(F)(F)F)C(F)(F)F = 662.22 ± 26 J/K/mol
CCCCC[n+]1ccn(CCCC)c1.O=S(=O)([N-]S(=O)(=O)C(F)(F)F)C(F)(F)F = 697.09 ± 27 J/K/mol

Next up:
Q: Item `CCCCn1cc[n+](C(CC)CC)c1.O=S(=O)([N-]S(=O)(=O)C(F)(F)F)C(F)(F)F` has what recorded molar heat capacity at constant pressure?
Ans: 707.21 ± 27 J/K/mol
